The measured values listed here are drawn from patent US7309713B2.

system: isolated organ strips of rat bladder; experiment: isolated organ strips of rat bladder contracted with potassium chloride (40 mM); conditions: read-out: IC50, concentration needed to counteract the contractile response of potassium chloride by 50%, isolated organ bath
MEASUREMENT_NAME: IC50 (µM)
Answers are plain numbers, in µM.

Requested read-out: IC50. Entry: CCOC(=O)Nc1ccc(NCc2ccc(F)cc2)nc1N
7.5
